Tested on: IGROV1 ovarian
ASSAY_OVERVIEW: NCI-60 one-dose screen, 48 h
CONDITION_LABEL: 10 µM unless noted
Method: Growth inhibition of the IGROV1 human tumor cell line is measured as a screen for anti-cancer activity. Cells are grown in 96 well plates and exposed to the test compound for 48 hours. Compounds are tested at a single concentration, which is 10^-5 M for most compounds. The reported endpoint is percent growth (GI% or GIPRCNT), where numbers from 0 - 100% represent growth inhibition, and numbers from -100% - 0 represent cell death. For example, a value of 40 represents 60% growth inhibition. […]
The panel holds about 83,000 compounds, 20% with a hit somewhere; the sample as a whole holds those more often. Activity calls are given as the source filed them. The calls were made as follows: active = growth percent below 10; inactive = the rest.
Lab note: assign the record to one of active, inactive

Worked cases, answers included:
// query # lookup: test call for `Nc1[nH]nc(Nc2ccccc2)c1-c1nc2ccccc2s1`
// result inactive

// query For this molecule, state the assay outcome: `COc1ccc(-c2ccc(-c3ccc(C(=N)N)cn3)s2)cc1Cl`
// result active

// query What call does the record list for `COc1nc2ccc(C)cc2cc1/C=[N+](\[O-])c1ccccc1` ?
// result inactive

// query Could you kindly confirm the outcome this assay logged for `COc1ccccc1/C=C1\COc2ccc(O)cc2C1=O` ?
// result inactive

// query What call does the record list for Cc1nc2sc(C(=O)Nc3cccc4ncccc34)c(N)c2cc1C(C)O (configuration not stated) ?
// result inactive

Further cases:
// query Short answer needed: outcome of this test for `OCc1cc(CN2CCCCC2)c(O)c2ncccc12` ?
// result inactive

// query Answer briefly: the call reported for CCCN1C(=O)/C(=c2\sc3n(c2=O)NC2C(N=3)N(CC)C(=O)N2CC)c2ccccc21 (configuration not stated) in this assay.
// result inactive

// query What classification did `CCCCCCCCCCCCCCCC[N+](C)(C)CCN(Cc1ccc(OC)cc1)c1ncccn1` end up with in this test?
// result active

// query Would you mind telling me which call this test gave `O=C(CCCOc1ccc(Br)cc1)Nc1ncc(Cc2ccc(F)cc2)s1` ?
// result inactive

// query Outcome logged for `COc1ccc(CN2CCc3c(Cl)nc(N)nc3C2=O)c(OC)c1` in this assay:
// result active

// query Give the logged outcome of this assay for the following molecule: `O=C1C(c2c[nH]c3ccccc23)=C(c2coc3cc(Br)ccc23)C(=O)N1O`
// result inactive

// query Tell me the assay call for `CCNC(=O)Nc1ncccc1OCc1ccc(F)cc1` please.
// result inactive

// query Recorded test outcome, item `CCCCSc1ccc2nc(-c3ccc(OCCCN=C(N)N)cc3)cn2c1`
// result inactive

====

System: OVCAR-3 ovarian
ASSAY_OVERVIEW: NCI-60 one-dose screen, 48 h (100 = growth as untreated, 0 = no growth, -100 = all killed)
CONDITION_LABEL: 10 µM unless noted
The panel holds about 83,000 compounds, 20% with a hit somewhere; the sample as a whole holds those more often. Activity calls are given as the source filed them. Rule for the calls: active = growth percent below 10; inactive = the rest.
Listed next: entries and their corresponding growth.

Reference set, count: 10
// query Dear colleague, please send me the reported growth for COc1ccc2c(c1)CCNC21C(=O)Nc2c(Br)cc(Br)cc21 (stereo unspecified) when you can.
// result 101% (inactive)

// query Please supply the value of reported growth for the item CC12OC(CC(O)C1O)n1c3ccccc3c3c4c(c5c6ccccc6n2c5c31)C(=O)N(CCN1CCOCC1)C4=O (stereo unspecified)
// result 20.8% (inactive)

// query Tell us which growth value is on record for `CC(C)(C)CC(N)=O`
// result 110% (inactive)

// query Supply recorded growth for `CCOC(=O)n1cc(-c2nonc2-c2cn(C)c3ccc(OC)cc23)c2cc(F)ccc21` here.
// result 87.4% (inactive)

// query Note down growth recorded for `COc1cc(-c2nc3occn3c2-c2ccnc(NCCCNS(=O)(=O)c3ccc(O)cc3)n2)ccc1F`
// result 117% (inactive)

// query Fill in reported growth for this entry: `COc1ccc(-c2cc(-c3cccc(Cl)c3)c(C#N)c(=O)[nH]2)c(OC)c1`
// result 90.5% (inactive)

// query Item `OCCN1CCN(c2cc(-c3cccc(OC(F)(F)F)c3)nc3ccc(N4CCCC4)cc23)CC1` : provide growth
// result 46.7% (inactive)

// query Report measured growth; entry is `Nc1nc(CSc2n[nH]c(N)n2)nc(Nc2ccccc2)n1`
// result 105% (inactive)

// query Recall and state the measured growth for `NCCOCCOc1ccccc1` .
// result 106% (inactive)

// query Fill in reported growth for this entry: `COc1cc2cc(NCc3ccncc3)nc(C)c2cc1OC`
// result 107% (inactive)

Next compound, please.
// query Specify growth for `CC(=NCc1ccccc1)c1ccc(O)cc1O` and stop.
// result 103% (inactive)

====

Tested on: BT-549 breast
ASSAY_OVERVIEW: NCI-60 one-dose screen, 48 h (100 = growth as untreated, 0 = no growth, -100 = all killed)
CONDITION_LABEL: 10 µM unless noted
The panel holds about 83,000 compounds, 20% with a hit somewhere; the sample as a whole holds those more often.
growth vs 90%: less than gives Satisfied; not less than gives Not satisfied.

// query Bench note: check whether `Cc1ccc(C(=O)Nc2nc3c(s2)CN(Cc2ccccc2)CC3)cn1` shows growth below 90%
// result Not satisfied

// query Is growth strictly under 90% for the entry `COc1cc2cc(NCc3ccncc3)nc(C)c2cc1OC` ?
// result Satisfied

// query Consider `O=C(Cn1cc(CN2CCN(c3ccnc4cc(Cl)ccc34)CC2)nn1)Nc1cccc([N+](=O)[O-])c1` . Does its growth lie strictly below 90%?
// result Satisfied

// query Here's an entry: `O=C(NCCCN1CCCCC1)c1ccc(-c2nc3ccc4[nH]ncc4c3c3c2CCCC3)cc1` . Is its growth below 90%?
// result Satisfied

// query hey, is growth for O=C(/C=C/C12c3ccccc3C(c3ccccc31)C1C(=O)NC(=O)C12)c1ccncc1 (stereo not given) lower than 90% or not?
// result Satisfied

// query Determine if `CCCc1cc(C(N)=S)ccn1` shows growth strictly lower than 90%.
// result Not satisfied

// query Threshold test, growth < 90%: `CN(C)C(=O)c1cc2cnc(Nc3ccc(-c4csc5c(=S)cc(N6CCOCC6)oc45)cc3)nc2n1C1CCCC1`
// result Satisfied

# evaluate next
// query Lab log: compare recorded growth with 90%; is it strictly lower for `N=c1ccccn1CCO` ?
// result Not satisfied

====

System: TK-10 renal
ASSAY_OVERVIEW: NCI-60 one-dose screen, 48 h (100 = growth as untreated, 0 = no growth, -100 = all killed)
CONDITION_LABEL: 10 µM unless noted
This is part of a sample that, as a whole, favours compounds with a hit. Of some 83,000 tested, about 20% had one in any assay.
ENDPOINT: growth (%)
Provide the reading as a plain figure in %.

# count of solved cases: 5
// query Answer with the recorded growth for the compound listed here: `COc1cc2nc3cc([N+](=O)[O-])ccc3c(NCCNCC(C)(C)O)c2cc1OC`
// result 9.89

// query Using the record for `CCOC(=O)c1nc2c3ccccc3cnn2c1C(=O)c1ccc(OC)cc1` , state its measured growth.
// result 140

// query Quickly give me recorded growth for `ON=C1CCCCCCCC1`
// result 100

// query Supply growth value. Item: `[2H]C([2H])([2H])Oc1cc(F)ccc1/C=C/C(=O)/C=C(/C=C/c1ccc(F)cc1OC([2H])([2H])[2H])OB(F)F`
// result 43.6

// query Answer with the recorded growth of `CCCCCCNC(=O)Oc1ccc(/C(=C(/CC)Cc2ccccc2)c2ccc(OCCCN(C)C)cc2)cc1` only.
// result 82.2

Next:
// query Identify measured growth corresponding to CC(=O)N1N=C(c2ccc(Nc3nc(Nc4ccc(F)cc4)nc(Nc4ccc(Cl)cc4)n3)cc2)CC1c1ccc(N(C)C)cc1 (centres undefined)
// result 50.5

// query Please supply the value of reported growth for the item `Cc1ccc(-c2nc([P+](c3ccccc3)(c3ccccc3)c3ccccc3)c(Nc3ccccc3)o2)cc1`
// result 8.06

// query Identify the reported growth for the following entry. `COC(=O)c1nc(-c2ccc(C)cc2)oc1S(=O)(=O)c1ccc(Cl)cc1`
// result 93.5

// query Provide measured growth value, entry: `Cc1ccc(C(=O)c2ccc(CC(=O)N=Nc3c(O)[nH]c4ccc(OC(F)(F)F)cc34)n2C)cc1`
// result 137

====

Tested on: LOX IMVI melanoma
ASSAY_OVERVIEW: NCI-60 one-dose screen, 48 h
CONDITION_LABEL: 10 µM unless noted
The panel holds about 83,000 compounds, 20% with a hit somewhere; the sample as a whole holds those more often. Activity calls are given as the source filed them. How the source made its calls: active means growth percent below 10; inactive means the rest.
Entry note: the call must match one of True for active, False for inactive

// query Recorded call for `CCCCCCNC(=O)Oc1ccc(/C(=C(/CC)Cc2ccccc2)c2ccc(OCCCN(C)C)cc2)cc1` ?
// result True

// query Assay result, entry `C=C1C(=O)O[C@H]2[C@H]1CC/C(COC(=O)NCc1ccc(Cn3c(=O)sn(CCCI)c3=O)cc1)=C\CC[C@@]1(C)O[C@@H]21` — outcome?
// result True

Further cases:
// query Query: recorded result category for CCCCCCCCCCCCCCCC(=O)O[C@@H]1[C@@H](O)[C@@H](O)C([C@H](NC(=O)[C@@H]2C[C@@H](CCC)CN2C)[C@H](C)Cl)O[C@@H]1SC (some centres undefined) in this test
// result False

// query Returns: the outcome recorded for `O=C1Nc2ccccc2/C1=C/c1cccn1CCCCCn1c2ccccc2c(=O)c2ccccc21` in this assay.
// result False

Origin of the recorded values: PubChem BioAssay (NCI)
